Tested On: T1, glutathione S-transferase (GST) (UniProt P08515 1-218 = GST)
T1 construct: also called carrier protein GST
T1 sequence (P08515 whole entry): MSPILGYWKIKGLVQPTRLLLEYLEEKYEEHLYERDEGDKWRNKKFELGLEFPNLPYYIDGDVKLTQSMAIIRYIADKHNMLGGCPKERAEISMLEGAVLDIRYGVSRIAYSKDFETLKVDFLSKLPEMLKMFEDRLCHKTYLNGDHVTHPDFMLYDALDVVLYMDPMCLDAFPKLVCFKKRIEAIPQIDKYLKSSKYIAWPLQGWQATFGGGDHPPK
Assay Text: ELISA, Ab 0.025 µg/ml
Property: A450 (A450)

- Binder: "rabbit monoclonal anti-mouse/human Id3, clone #BCH-4/#42-1 (antibody, V domains shown, Rabbit IgG from a rabbit hybridoma; also called m/h Id3 MoAb 42-1) VH: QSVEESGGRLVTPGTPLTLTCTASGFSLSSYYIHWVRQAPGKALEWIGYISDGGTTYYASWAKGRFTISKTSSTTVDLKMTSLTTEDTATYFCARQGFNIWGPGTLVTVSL VL: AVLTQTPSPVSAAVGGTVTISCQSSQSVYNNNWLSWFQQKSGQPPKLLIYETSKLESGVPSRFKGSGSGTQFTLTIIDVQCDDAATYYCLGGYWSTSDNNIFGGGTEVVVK"
  Result Number: 0.045
- Binder: "rabbit monoclonal anti-mouse/human Id3, clone #BCH-4/#17-3 (antibody, V domains shown, Rabbit IgG from a rabbit hybridoma; also called m/h Id3 MoAb 17-3; BCH-3/#17-3) VH: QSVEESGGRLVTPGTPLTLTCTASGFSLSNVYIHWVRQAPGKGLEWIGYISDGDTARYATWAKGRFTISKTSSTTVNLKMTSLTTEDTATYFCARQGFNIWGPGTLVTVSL VL: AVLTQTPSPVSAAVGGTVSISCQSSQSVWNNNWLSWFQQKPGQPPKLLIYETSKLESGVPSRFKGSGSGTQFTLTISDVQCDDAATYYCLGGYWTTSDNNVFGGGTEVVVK"
  Result Number: 0.045
- Binder: "rabbit monoclonal anti-mouse/human Id3, clone #BCH-4/#16-1 (antibody, V domains shown, Rabbit IgG from a rabbit hybridoma; also called m/h Id3 MoAb 16-1) VH: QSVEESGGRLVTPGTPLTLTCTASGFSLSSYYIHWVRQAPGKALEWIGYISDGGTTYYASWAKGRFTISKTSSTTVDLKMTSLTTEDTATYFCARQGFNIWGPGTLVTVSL VL: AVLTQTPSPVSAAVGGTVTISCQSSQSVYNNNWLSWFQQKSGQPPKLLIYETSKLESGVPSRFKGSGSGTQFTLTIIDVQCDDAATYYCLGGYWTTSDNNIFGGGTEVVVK"
  Result Number: 0.048
- Binder: "rabbit monoclonal anti-mouse/human Id3, clone #BCH-4/#6-1 (antibody, V domains shown, Rabbit IgG from a rabbit hybridoma; also called m/h Id3 MoAb 6-1) VH: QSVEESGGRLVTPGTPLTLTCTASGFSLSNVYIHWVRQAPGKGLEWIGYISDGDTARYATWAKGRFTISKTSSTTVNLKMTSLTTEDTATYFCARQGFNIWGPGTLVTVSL VL: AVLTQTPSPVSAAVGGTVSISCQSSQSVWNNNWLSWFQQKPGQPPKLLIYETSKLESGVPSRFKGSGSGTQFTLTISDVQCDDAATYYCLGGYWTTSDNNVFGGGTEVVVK"
  Result Number: 0.049

FYI, the data here is from patent US20070178531A1.
